Values compiled from patent US20220153766A1.

Measured GI50, listed per entry for reference.
Target or system: Ba/F3_EGFR del19/T790M/C797S cells (Homo sapiens, UniProt P00533, T790M/C797S, cells depend on it, form not given)
Sequence (P00533 with tags, fused parts or gaps DEL746-750/T790M/C797S, form open): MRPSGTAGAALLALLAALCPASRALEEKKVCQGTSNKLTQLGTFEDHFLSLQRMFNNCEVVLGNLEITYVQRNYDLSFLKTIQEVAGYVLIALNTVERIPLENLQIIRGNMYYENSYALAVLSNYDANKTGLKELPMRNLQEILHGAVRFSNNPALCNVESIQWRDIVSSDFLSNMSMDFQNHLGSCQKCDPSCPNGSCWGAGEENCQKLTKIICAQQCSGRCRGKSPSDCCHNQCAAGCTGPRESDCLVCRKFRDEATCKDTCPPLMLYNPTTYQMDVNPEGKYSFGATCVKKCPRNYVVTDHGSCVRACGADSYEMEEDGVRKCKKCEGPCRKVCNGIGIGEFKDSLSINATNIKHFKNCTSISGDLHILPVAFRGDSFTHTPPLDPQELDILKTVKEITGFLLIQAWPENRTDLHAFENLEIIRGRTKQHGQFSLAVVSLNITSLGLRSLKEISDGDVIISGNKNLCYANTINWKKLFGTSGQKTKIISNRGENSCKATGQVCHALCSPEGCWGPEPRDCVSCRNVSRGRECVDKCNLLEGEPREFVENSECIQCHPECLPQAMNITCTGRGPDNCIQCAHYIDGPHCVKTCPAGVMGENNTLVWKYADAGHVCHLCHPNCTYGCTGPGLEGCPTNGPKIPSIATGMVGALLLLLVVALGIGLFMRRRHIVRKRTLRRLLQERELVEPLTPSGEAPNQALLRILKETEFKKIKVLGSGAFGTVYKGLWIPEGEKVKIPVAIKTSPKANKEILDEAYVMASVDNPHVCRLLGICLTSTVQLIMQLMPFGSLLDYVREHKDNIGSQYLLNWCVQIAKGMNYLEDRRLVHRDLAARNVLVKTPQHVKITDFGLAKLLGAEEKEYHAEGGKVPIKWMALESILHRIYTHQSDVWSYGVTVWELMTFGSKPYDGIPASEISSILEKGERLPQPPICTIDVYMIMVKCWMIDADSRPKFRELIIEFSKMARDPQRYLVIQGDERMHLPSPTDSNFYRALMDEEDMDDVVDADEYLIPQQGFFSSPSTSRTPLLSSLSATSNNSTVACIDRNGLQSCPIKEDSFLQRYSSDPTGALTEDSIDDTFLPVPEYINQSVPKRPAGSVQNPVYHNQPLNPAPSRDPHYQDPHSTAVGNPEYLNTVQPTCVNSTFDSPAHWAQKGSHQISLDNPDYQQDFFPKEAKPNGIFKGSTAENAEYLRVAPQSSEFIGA
Assay info: Ba/F3_EGFR (del19-T790M-C797S) cell proliferation inhibition, CTG, method 1
Format: cell-based
Experimental parameters: 700 cells/well, 72 h, read-out: Ba/F3_EGFR (del19-T790M-C797S) cell proliferation inhibition (IC50 value) Method 1

A selection of reference data follows.
Molecule	GI50
C#CC(=O)N1CCN2c3ccc(Nc4ncc(Cl)c(Nc5ccccc5P(C)(C)=O)n4)cc3OC[C@H]2C1 [Compound 17R]	< 20 nM
CCN1CCN2c3ccc(Nc4ncc(Cl)c(Nc5ccccc5P(C)(C)=O)n4)cc3OC[C@H]2C1 [Compound 8R]	20 to 100 nM

Then there is this molecule:
Find the recorded GI50 belonging to CP(C)(=O)c1ccccc1Nc1nc(Nc2ccc3c(c2)OC[C@H]2CN(CC(F)(F)F)CCN32)ncc1Cl [Compound 13R] and report it.
20 to 100 nM

* * *

Target or system: EGFR (C797S) (Homo sapiens, UniProt P00533, C797S)
Sequence (P00533 25-1210 C797S): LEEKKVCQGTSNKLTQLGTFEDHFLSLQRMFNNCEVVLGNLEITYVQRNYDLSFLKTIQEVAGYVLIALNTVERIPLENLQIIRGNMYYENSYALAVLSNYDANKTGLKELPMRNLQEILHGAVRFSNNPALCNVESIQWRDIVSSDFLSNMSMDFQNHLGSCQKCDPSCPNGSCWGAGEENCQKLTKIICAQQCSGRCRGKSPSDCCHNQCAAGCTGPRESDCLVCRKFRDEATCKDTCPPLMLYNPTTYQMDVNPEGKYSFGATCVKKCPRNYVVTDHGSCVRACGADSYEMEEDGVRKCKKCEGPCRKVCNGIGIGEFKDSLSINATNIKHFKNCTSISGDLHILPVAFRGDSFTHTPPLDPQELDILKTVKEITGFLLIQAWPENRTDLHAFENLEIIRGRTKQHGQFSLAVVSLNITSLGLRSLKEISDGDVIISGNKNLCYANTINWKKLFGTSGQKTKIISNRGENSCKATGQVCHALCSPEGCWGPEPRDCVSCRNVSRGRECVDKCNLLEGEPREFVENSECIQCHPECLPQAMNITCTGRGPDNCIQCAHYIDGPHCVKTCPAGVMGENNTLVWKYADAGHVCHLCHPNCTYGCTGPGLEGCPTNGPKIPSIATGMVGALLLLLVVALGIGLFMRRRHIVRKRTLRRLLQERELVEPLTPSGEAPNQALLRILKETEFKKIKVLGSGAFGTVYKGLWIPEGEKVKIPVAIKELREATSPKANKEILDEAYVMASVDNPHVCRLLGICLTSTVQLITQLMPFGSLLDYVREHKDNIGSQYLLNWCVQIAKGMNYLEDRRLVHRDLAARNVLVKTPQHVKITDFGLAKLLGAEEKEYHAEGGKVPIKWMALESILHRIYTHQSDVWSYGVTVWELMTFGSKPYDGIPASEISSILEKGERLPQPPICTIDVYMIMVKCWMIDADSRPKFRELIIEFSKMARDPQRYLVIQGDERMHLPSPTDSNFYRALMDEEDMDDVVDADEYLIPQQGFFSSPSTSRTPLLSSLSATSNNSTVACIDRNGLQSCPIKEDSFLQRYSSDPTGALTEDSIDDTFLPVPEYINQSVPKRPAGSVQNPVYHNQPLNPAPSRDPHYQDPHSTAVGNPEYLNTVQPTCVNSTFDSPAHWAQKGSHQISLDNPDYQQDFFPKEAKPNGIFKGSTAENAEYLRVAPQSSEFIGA
Assay info: EGFR (C797S) kinase activity inhibition, Lantha screen Assay
Experimental parameters: kinase 10 nM, ATP 0.1 μM
pIC50: −log10 of the molar value.
Quantity measured: pIC50

A selection of reference data follows.
Compound	pIC50
CC(=O)N1CCN2c3ccc(Nc4ncc(Cl)c(Nc5ccccc5P(C)(C)=O)n4)cc3OC[C@H]2C1	6.60 to 7.30
C=CC(=O)N1CCN2c3ccc(Nc4ncc(Cl)c(Nc5ccccc5P(C)(C)=O)n4)cc3OC[C@H]2C1	6.60 to 7.30
CP(C)(=O)c1ccccc1Nc1nc(Nc2ccc3c(c2)OC[C@H]2CN(CC#N)CCN32)ncc1Cl	6.00 to 6.60
C=CC(=O)N1CCN2c3ccc(Nc4ncc(Cl)c(Nc5ccccc5P(C)(C)=O)n4)cc3OC[C@@H]2C1	7.30 to 9.00
CN1CCC(N2CCN3c4ccc(Nc5ncc(Cl)c(Nc6ccccc6P(C)(C)=O)n5)cc4OC[C@H]3C2)CC1 [Compound 11R]	7.30 to 9.00
CN1CCN2c3ccc(Nc4ncc(Cl)c(Nc5ccccc5P(C)(C)=O)n4)cc3OCC2C1 (racemic)	7.30 to 9.00

Find the recorded pIC50 belonging to `CN1CCN2c3ccc(Nc4ncc(Cl)c(Nc5ccccc5P(C)(C)=O)n4)cc3OC[C@@H]2C1` and report it.
7.30 to 9.00

Entry `CP(C)(=O)c1ccccc1Nc1nc(Nc2ccc3c(c2)OC[C@H]2CN(CCO)CCN32)ncc1Cl` please
6.60 to 7.30

Entry COCCN1CCN2c3ccc(Nc4ncc(Cl)c(Nc5ccccc5P(C)(C)=O)n4)cc3OC[C@H]2C1 [Compound 10R] please
7.30 to 9.00

Entry `CP(C)(=O)c1ccccc1Nc1nc(Nc2ccc3c(c2)OC[C@@H]2CNCCN32)ncc1Cl` please
7.30 to 9.00

* * *

Assay info: Pharmacokinetic study in rats after intragastrical administration
Assay type: in vivo
Experimental parameters: male, rat, plasma, po, SD rats, 3 mg/kg, read-out: AUC0-24 h
Measured log10 AUC(0-t), listed per entry for reference.
In plain terms, each number is the log10 of measured AUC(0-t) in ng·h/mL.

A selection of reference data follows.
Molecule	Reported value
Cc1cc(Nc2ncc(Cl)c(Nc3ccccc3P(C)(C)=O)n2)cc2c1N1CCN(C3CCN(C4CC4)CC3)C[C@@H]1CO2 [Compound 33R]	3.25
CN1CCC(N2CCN3c4c(F)cc(Nc5ncc(Cl)c(Nc6ccccc6P(C)(C)=O)n5)cc4OC[C@@H]3C2)CC1 [Compound 35S]	2.25
CC(=O)N1CCC(N2CCN3c4c(C)cc(Nc5ncc(Cl)c(Nc6ccccc6P(C)(C)=O)n5)cc4OC[C@H]3C2)CC1 [Compound 32R]	3.53
Cc1cc(Nc2ncc(Cl)c(Nc3ccccc3P(C)(C)=O)n2)cc2c1N1CCN(C3CCN(C)CC3)C[C@H]1CO2 [Compound 27S]	3.32

Then there is this molecule:
Find the recorded log10 AUC(0-t) belonging to CC(=O)N1CCC(N2CCN3c4c(C)cc(Nc5ncc(Cl)c(Nc6ccccc6P(C)(C)=O)n5)cc4OC[C@@H]3C2)CC1 [Compound 32S] and report it.
3.51

* * *

Assay info: Pharmacokinetic study in rats after intragastrical administration
Type: in vivo
Experimental parameters: male, rat, plasma, po, SD rats, 3 mg/kg
Quantity measured: half-life (h)
Reply numerically in h, unit not repeated.

A selection of reference data follows.
Compound	Reported value
Cc1cc(Nc2ncc(Cl)c(Nc3ccccc3P(C)(C)=O)n2)cc2c1N1CCN(C3CCN(C)CC3)C[C@H]1CO2 [Compound 27S]	5.2
Cc1cc(Nc2ncc(Cl)c(Nc3ccccc3P(C)(C)=O)n2)cc2c1N1CCN(C3CCOCC3)C[C@H]1CO2 [Compound 31S]	6.27
Cc1cc(Nc2ncc(Cl)c(Nc3ccccc3P(C)(C)=O)n2)cc2c1N1CCN(C3CCN(C)CC3)C[C@@H]1CO2 [Compound 27R]	5.17
Cc1cc(Nc2ncc(Cl)c(Nc3ccccc3P(C)(C)=O)n2)cc2c1N1CCN(C3CCOCC3)C[C@@H]1CO2 [Compound 31R]	5.18
CC(=O)N1CCC(N2CCN3c4c(C)cc(Nc5ncc(Cl)c(Nc6ccccc6P(C)(C)=O)n5)cc4OC[C@@H]3C2)CC1 [Compound 32S]	2.22
CC(=O)N1CCC(N2CCN3c4c(C)cc(Nc5ncc(Cl)c(Nc6ccccc6P(C)(C)=O)n5)cc4OC[C@H]3C2)CC1 [Compound 32R]	1.95
CN1CCC(N2CCN3c4c(F)cc(Nc5ncc(Cl)c(Nc6ccccc6P(C)(C)=O)n5)cc4OC[C@@H]3C2)CC1 [Compound 35S]	3.97
Cc1cc(Nc2ncc(Cl)c(Nc3ccccc3P(C)(C)=O)n2)cc2c1N1CCN(C3CCN(C4CC4)CC3)C[C@@H]1CO2 [Compound 33R]	3.88

Find the recorded half-life belonging to Cc1cc(Nc2ncc(Cl)c(Nc3ccccc3P(C)(C)=O)n2)cc2c1N1CCN(C)C[C@@H]1CO2 [Compound 25R] and report it.
6.75

* * *

Assay info: Pharmacokinetic study in rats after intragastrical administration
Format: in vivo
Experimental parameters: male, rat, plasma, po, SD rats, 3 mg/kg
In plain terms, low Cmax, meaning strictly below 80 ng/mL, gives 1 (yes), and everything else gives 0 (no).

Record excerpt, results attached:
Molecule	Assigned category
Cc1cc(Nc2ncc(Cl)c(Nc3ccccc3P(C)(C)=O)n2)cc2c1N1CCN(C)C[C@@H]1CO2 [Compound 25R]	1 (yes)
CC(=O)N1CCC(N2CCN3c4c(C)cc(Nc5ncc(Cl)c(Nc6ccccc6P(C)(C)=O)n5)cc4OC[C@H]3C2)CC1 [Compound 32R]	0 (no)
Cc1cc(Nc2ncc(Cl)c(Nc3ccccc3P(C)(C)=O)n2)cc2c1N1CCN(C3CCOCC3)C[C@H]1CO2 [Compound 31S]	0 (no)

hey, is Cmax for CN1CCC(N2CCN3c4c(F)cc(Nc5ncc(Cl)c(Nc6ccccc6P(C)(C)=O)n5)cc4OC[C@@H]3C2)CC1 [Compound 35S] lower than 80 ng/mL or not?
1 (yes)

* * *

Target or system: MAP4K1 (HPK1) (Homo sapiens, UniProt Q92918)
Sequence (Q92918 whole entry): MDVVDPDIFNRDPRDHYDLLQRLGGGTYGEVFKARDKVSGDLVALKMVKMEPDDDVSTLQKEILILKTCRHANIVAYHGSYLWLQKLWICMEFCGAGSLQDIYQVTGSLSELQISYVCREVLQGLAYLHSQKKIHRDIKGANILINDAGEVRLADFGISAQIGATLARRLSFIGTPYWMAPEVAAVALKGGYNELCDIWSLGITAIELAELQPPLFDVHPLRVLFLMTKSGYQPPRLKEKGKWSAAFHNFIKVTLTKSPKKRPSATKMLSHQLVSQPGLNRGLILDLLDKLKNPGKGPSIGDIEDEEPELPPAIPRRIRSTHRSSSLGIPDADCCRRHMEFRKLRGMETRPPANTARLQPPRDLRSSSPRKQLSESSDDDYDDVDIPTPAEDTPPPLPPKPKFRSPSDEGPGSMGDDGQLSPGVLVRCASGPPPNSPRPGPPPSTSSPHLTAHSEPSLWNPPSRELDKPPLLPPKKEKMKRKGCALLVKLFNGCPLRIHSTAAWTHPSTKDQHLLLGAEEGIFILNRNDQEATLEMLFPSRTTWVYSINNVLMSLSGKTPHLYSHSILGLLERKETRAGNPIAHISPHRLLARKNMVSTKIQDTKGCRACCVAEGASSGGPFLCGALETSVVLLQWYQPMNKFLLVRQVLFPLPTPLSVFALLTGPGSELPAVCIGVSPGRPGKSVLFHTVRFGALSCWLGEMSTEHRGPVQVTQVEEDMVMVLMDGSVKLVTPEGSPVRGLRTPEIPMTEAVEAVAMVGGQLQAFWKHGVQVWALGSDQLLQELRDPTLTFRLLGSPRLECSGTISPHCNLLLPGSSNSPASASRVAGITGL
Assay info: MAP4K1 (HPK1) kinase activity inhibition, Caliper mobility shift assay
Format: biochemical
Experimental parameters: kinase 1.25 nM, ATP 10.1 μM
Measured IC50, listed per entry for reference.

A selection of reference data follows.
Molecule	Reported value
Cc1cc(Nc2ncc(Cl)c(Nc3ccccc3P(C)(C)=O)n2)cc2c1N1CCN(C3CCN(C)CC3)C[C@@H]1CO2 [Compound 27R]	≤ 1 nM
CP(C)(=O)c1ccccc1Nc1nc(Nc2ccc3c(c2)OC[C@H]2COCCN32)ncc1Cl [Compound 12R]	≤ 1 nM
COc1cc(N2CCC(N3CCN(C)CC3)CC2)ccc1Nc1ncc(Cl)c(Nc2ccccc2P(C)(C)=O)n1 [Brigatinib, reference compound]	10 to 100 nM
Cc1cc(Nc2ncc(Cl)c(Nc3ccccc3P(C)(C)=O)n2)cc2c1N1CCNC[C@H]1CO2 [Compound 23S]	≤ 1 nM
Cc1cc(Nc2ncc(Cl)c(Nc3ccccc3P(C)(C)=O)n2)cc2c1N1CCN(C3CCN(C)CC3)C[C@H]1CO2 [Compound 27S]	≤ 1 nM

Then there is this molecule:
Find the recorded IC50 belonging to CC(=O)N1CCC(N2CCN3c4c(C)cc(Nc5ncc(Cl)c(Nc6ccccc6P(C)(C)=O)n5)cc4OC[C@H]3C2)CC1 [Compound 32R] and report it.
≤ 1 nM

* * *

Target or system: Ba/F3_EGFR del19/T790M/C797S cells (Homo sapiens, UniProt P00533, T790M/C797S, cells depend on it, form not given)
Assay info: Ba/F3_EGFR (del19-T790M-C797S) cell proliferation inhibition, CTG, method 1
Format: cell-based
Experimental parameters: 700 cells/well, 72 h, read-out: Ba/F3_EGFR (del19-T790M-C797S) cell proliferation inhibition (IC50 value) Method 1
Quantity measured: GI50

A selection of reference data follows.
Compound	GI50
CN1CCC(N2CCN3c4ccc(Nc5ncc(Cl)c(Nc6ccccc6P(C)(C)=O)n5)cc4OC[C@H]3C2)CC1 [Compound 11R]	< 20 nM
COCCCC(=O)N1CCN2c3ccc(Nc4ncc(Cl)c(Nc5ccccc5P(C)(C)=O)n4)cc3OC[C@H]2C1 [Compound 28R]	20 to 100 nM
Cc1cc(Nc2ncc(Cl)c(Nc3ccccc3P(C)(C)=O)n2)cc2c1N1CCNC[C@H]1CO2 [Compound 23S]	< 20 nM

Find the recorded GI50 belonging to C=CC(=O)Nc1cc(Nc2ncc(Cl)c(Nc3ccccc3P(C)(C)=O)n2)cc2c1N1CCN(C)C[C@@H]1CO2 [Compound 29R] and report it.
20 to 100 nM

Entry CP(C)(=O)c1ccccc1Nc1nc(Nc2ccc3c(c2)OC[C@H]2CNCCN32)ncc1Cl [Compound 4R] please
20 to 100 nM

Entry CN1CCN2c3ccc(Nc4ncc(Cl)c(Nc5ccccc5P(C)(C)=O)n4)cc3OC[C@@H]2C1 [Compound 1S] please
< 20 nM

Entry CP(C)(=O)c1ccccc1Nc1nc(Nc2ccc3c(c2)OC[C@H]2CN(C4CCNCC4)CCN32)ncc1Cl [Compound 21R] please
> 200 nM

Entry C=CC(=O)N1CCN2c3ccc(Nc4ncc(Cl)c(Nc5ccccc5P(C)(C)=O)n4)cc3OC[C@@H]2C1 [Compound 6S] please
20 to 100 nM

Entry CP(C)(=O)c1ccccc1Nc1nc(Nc2ccc3c(c2)OC[C@H]2COCCN32)ncc1Cl [Compound 12R] please
20 to 100 nM

Entry CC(=O)N1CCN2c3ccc(Nc4ncc(Cl)c(Nc5ccccc5P(C)(C)=O)n4)cc3OC[C@H]2C1 [Compound 5R] please
100 to 200 nM

Entry C=CS(=O)(=O)N1CCN2c3ccc(Nc4ncc(Cl)c(Nc5ccccc5P(C)(C)=O)n4)cc3OC[C@H]2C1 [Compound 19R] please
< 20 nM

Entry Cc1cc(Nc2ncc(Cl)c(Nc3ccccc3P(C)(C)=O)n2)cc2c1N1CCN(C3CCN(C)CC3)C[C@@H]1CO2 [Compound 27R] please
< 20 nM

Entry CN1CCN2c3ccc(Nc4ncc(Cl)c(Nc5ccccc5P(C)(C)=O)n4)cc3OC[C@H]2C1 [Compound 1R] please
< 20 nM
